Reported IC50 is given for each of the following compounds.
Test system: KO-52 cells
Assay: Proliferation assay, spheroid-like growth, KO-52 (MLL wildtype control cell line)
Assay type: cell-based, human
Conditions: Homo sapiens, 192 h, KO-52 control cells, 8 days, confluence as measure of spheroid size; read-out: spheroid assay_OneTime KO-52 IC50
State the value with its unit after it.

Consider the following illustrative entries.
compound	endpoint.result
CC(C)[C@H]([C@H]1C[C@H](N2C[C@H]3COC[C@H]3C2)C1)N1CC2(CCN(c3ncnnc3Oc3ccc(F)cc3-c3ncccc3C3CC3)C2)C1 (single isomer, unassigned)	3.14 µM
CC(=O)N1CC[C@]12CCN([C@H]1C[C@@H]([C@@H](C(C)C)N3CC4(CCN(c5ncnnc5Oc5ccc(F)cc5-c5cncnc5C5CC5)C4)C3)C1)C2 (single isomer, unassigned)	3.37 µM
CC(C)[C@@H]([C@H]1C[C@@H](N2CCC[C@@H](O)C2)C1)N1CC2(CCN(c3ncnnc3Oc3ccc(F)cc3-c3cccnc3C3CC3)C2)C1 (single isomer, unassigned)	0.49 µM

CC(C)[C@@H]([C@H]1C[C@H](N2C[C@H]3C[C@@H]2CO3)C1)N1CC2(CCN(c3ncnnc3Oc3ccc(F)cc3-c3cccnc3C3CC3)C2)C1 (single isomer, unassigned) yielded IC50 of 1.07 µM
